system: ScN2a; experiment: Antiprion activity in ScN2a cells assessed as complete reduction of protease-resistant scrapie prion protein; format: functional, Mus musculus
Mark T only when Activity stays strictly below 800 nM. Values equal to the cut-off are F.

Record excerpt, results attached:
c1ccc2c(c1)Sc1ccccc1N2CCCN1CCN(CCCCNc2c3ccccc3nc3ccccc23)CC1 :: T
COc1ccc2nc3cc(Cl)ccc3c(NCCN3CCN(CCCN(c4ccccc4)c4ccccc4)CC3)c2c1 :: T
COc1ccc2nc3cc(Cl)ccc3c(NCCCN3CCN(CCCN(c4ccccc4)c4ccccc4)CC3)c2c1 :: T

Consider the compound COc1ccc2nc3cc(Cl)ccc3c(NCCN3CCN(CCCN4c5ccccc5Sc5ccccc54)CC3)c2c1 . Is its Activity strictly less than 800 nM?
F

Consider the compound COc1ccc2nc3cc(Cl)ccc3c(NCCN3CCN(CCCN4c5ccccc5CCc5ccccc54)CC3)c2c1 . Is its Activity strictly less than 800 nM?
F

Consider the compound CN(C)CCCN1c2ccccc2CCc2ccccc21 . Is its Activity strictly less than 800 nM?
F

Consider the compound c1ccc(N(CCCN2CCN(CCCCNc3c4ccccc4nc4ccccc34)CC2)c2ccccc2)cc1 . Is its Activity strictly less than 800 nM?
T

Consider the compound c1ccc(N(CCCN2CCN(CCCNc3c4ccccc4nc4ccccc34)CC2)c2ccccc2)cc1 . Is its Activity strictly less than 800 nM?
T

Consider the compound c1ccc2c(c1)CCc1ccccc1N2CCCN1CCN(CCCCNc2c3ccccc3nc3ccccc23)CC1 . Is its Activity strictly less than 800 nM?
T

Source listed as ChEMBL document CHEMBL1137313.
